Target: T1, Soluble CTLA-4-Ig (human, UniProt P16410 36-161, FITC-conjugated in the two-colour FACS assays; unlabelled and detected with FITC goat anti-human IgG in the concentration-dependent assay)
T1 construct: extracellular domain; Bought from R&D Systems; also called sCTLA-4-Ig; CTLA-4-Ig Fc; not shown: Fc portion of human IgG1
T1 sequence (P16410 36-161): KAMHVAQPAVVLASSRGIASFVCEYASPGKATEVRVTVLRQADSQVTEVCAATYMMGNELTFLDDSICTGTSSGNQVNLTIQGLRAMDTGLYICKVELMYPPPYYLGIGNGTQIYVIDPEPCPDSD
Assay: two-colour FACS profile on transfected cells; score of preference for CTLA-4-Ig over CD28-Ig vs WT hB7-1
OBSERVABLE: Binding Score
Answers are plain numbers.

Round 2 CTLA4BP-5x4-1f (ligand) VIHVTKEVKEVATLSCGHNVSVEELAQTRIHWQKEKKMVLTMMSGDMNIWPEYKNRTIFDITNNLSIVILALRPSDEGTYECVVLKYEKDAFKREHLAEVMLSVKADFPTPSISDFEIPTSNIRRIICSTSGGFPEPHLFWLENGEELNAINTTVSQDPETELYTVSSKLDFNMTTNHSFMCLIKYGHLRVNQTFNWNTPKQEHFPDNLLPSWAITLISVNGIFVICCLTYCFAPRCRERRRNERLRRESVCPV :: 2
Round 1 CTLA4BP-7 (ligand, also called R1-7; R1 CTLA-4BP-7) VIHVTNEVKEVATLSCGHNVSGEELAQTRIYWQKEKKMVLTMMYGDMNIWPEYKNRTIFDITNNLSIVILALRPSDEGTYECVVLKYEKDAFKREHLAEVMLSVKADFPTPSITDFEIPPSNIRRIICLTSGGFPEPRLAWMKDGEELNAISTTVSQDPGTELYAVSSKLDFNMTTNHSFMCLIKYGHLRVNQTFSWNTPKQEHFPDNLLPSWAITLISVNGIFVICCLTYCFAPRCRERRRNERLRRESVRPV :: 1

Switching to the query record.
input: Can you look up the measured Binding Score of Round 2 CTLA4BP-5x3-10e (ligand) VIHVTKEVKEVATLSCGHNVSVEELAQTRIYWQKEKKMVLTMMSGDMNIWPEYKNRTIFDITNNLSIVILALRPSDEGTYECVVLEYEKDAFKREHLAEVTLSVKADFPTPSISDFEIPPSNIRRIICSTSGGFPEPHLFWLENGEELNAINTTVSQDPETELYAVSSKLDFNMTTNHSFMCLIKYGHLRVNQTFNWNTPKQEHFPDNLLPSWAITLISANGIFVICCLTYCFAPRCRERKSNERLRRESVHPV for me?
output: 2

Data provenance is patent US20050154189A1.
